- Tested on: nitrosoamine-induced pancreatic cancer
- Test: in vivo hemorrhagic necrosis effect
- Design: species or system hamsters; key: four scales of G4, G3, G2 and G1; four scales of G4, G3, G2 and G1; four scales of G4, G3, G2 and G1; four scales of G4, G3, G2 and G1
- Particulars: intensity of hemorrhagic necrosis at 24 hours following i.v. administration, and pathological study
Measurement kind: Hemorrhagic necrosis effect

The cases that follow already have their Hemorrhagic necrosis effect on record.
>>> result("CCCCCCOC(C)C1=C(C)C2=Cc3c(C(C)OCCCCCC)c(C)c4[n]3[Ga][n]3c(c(C)c(CCC(=O)NC(CC(=O)O)C(=O)O)c3=CC3=NC(=C4)C(C)=C3CCC(=O)NC(CC(=O)O)C(=O)O)=CC1=N2 (centres unmarked)")
"G4"
>>> result("CCCCCCCCCCOC(C)C1=C(C)C2=Cc3c(C(C)OCCCCCCCCCC)c(C)c4[n]3[Mn][n]3c(c(C)c(CCC(=O)NC(CC(C)C)C(=O)NC(CC(=O)O)C(=O)O)c3=CC3=NC(=C4)C(C)=C3CCC(=O)NC(CC(C)C)C(=O)NC(CC(=O)O)C(=O)O)=CC1=N2 (centres unmarked)")
"G2"
>>> result("C=CC1=C(C)C2=Cc3c(C(C)OCCCCCCCCCCCC)c(C)c4[n]3[Mn][n]3c(c(C)c(CCC(=O)NC(CC(=O)O)C(=O)O)c3=CC3=NC(=C4)C(C)=C3CCC(=O)NC(CC(=O)O)C(=O)O)=CC1=N2 (centres unmarked)")
"G2"
>>> result("CC1=C(CCC(=O)NC(CC(=O)O)C(=O)O)c2cc3[nH]c(cc4nc(cc5[nH]c(cc1n2)c(C(C)OCCC(C)CCCC(C)C)c5C)C(C(C)OCCC(C)CCCC(C)C)=C4C)c(C)c3CCC(=O)NC(CC(=O)O)C(=O)O.[Mn] (centres unmarked)")
"G4"

Each of the following entries comes with a recorded value; kindly state Hemorrhagic necrosis effect for each.
1. CCCCCCCCCCOC(C)C1=C(C)c2cc3[nH]c(cc4nc(cc5[nH]c(cc1n2)c(C)c5C(C)OCCCCCCCCCC)C(C)=C4CCC(=O)NC(CC(=O)O)C(=O)O)c(CCC(=O)NC(CC(=O)O)C(=O)O)c3C.[Mn] (centres unmarked)
2. CC(C)=CCC/C(C)=C/COC(C)C1=C(C)C2=Cc3c(C(C)OC/C=C(\C)CCC=C(C)C)c(C)c4[n]3[Ga][n]3c(c(C)c(CCC(=O)NC(CC(=O)O)C(=O)O)c3=CC3=NC(=C4)C(C)=C3CCC(=O)NC(CC(=O)O)C(=O)O)=CC1=N2 (centres unmarked)
3. CCCCCCCCCCCCCCOC(C)C1=C(C)C2=Cc3c(C(C)OCCCCCCCCCCCCCC)c(C)c4[n]3[Mn][n]3c(c(C)c(CCC(=O)NC(CC(=O)O)C(=O)O)c3=CC3=NC(=C4)C(C)=C3CCC(=O)NC(CC(=O)O)C(=O)O)=CC1=N2 (centres unmarked)

a:
["G3", "G2", "G3"]

# return Hemorrhagic necrosis effect for each item in the list
1. CCCCCCCCCCCCOC(C)C1=C(C)C2=Cc3c(C(C)OCCCCCCCCCCCC)c(C)c4[n]3[Cu][n]3c(c(C)c(CCC(=O)NC(CC(=O)O)C(=O)O)c3=CC3=NC(=C4)C(C)=C3CCC(=O)NC(CC(=O)O)C(=O)O)=CC1=N2 (centres unmarked)
2. CCCCCCCCCOC(C)C1=C(C)c2cc3[nH]c(cc4nc(cc5[nH]c(cc1n2)c(C)c5C(C)OCCCCCCCCC)C(C)=C4CCC(=O)NC(CC(=O)O)C(=O)O)c(CCC(=O)NC(CC(=O)O)C(=O)O)c3C.[Ga] (centres unmarked)

a:
1. G1
2. G2

Batch request: Hemorrhagic necrosis effect per item, same order as input.
1. CCCCCCCCCCOC(C)C1=C(C)C2=Cc3c(C(C)OCCCCCCCCCC)c(C)c4[n]3[Co][n]3c(c(C)c(CCC(=O)NC(CC(=O)O)C(=O)O)c3=CC3=NC(=C4)C(C)=C3CCC(=O)NC(CC(=O)O)C(=O)O)=CC1=N2 (centres unmarked)
2. CCCCCCCCOC(C)C1=C(C)C2=Cc3c(C(C)OCCCCCCCC)c(C)c4[n]3[Mn][n]3c(c(C)c(CCC(=O)NC(CC(=O)O)C(=O)O)c3=CC3=NC(=C4)C(C)=C3CCC(=O)NC(CC(=O)O)C(=O)O)=CC1=N2 (centres unmarked)

a:
G1
G3

###

- System: nitrosoamine-induced pancreatic cancer
- Test: in vivo hemorrhagic necrosis effect
- Design: species or system hamsters; key: four scales of G4, G3, G2 and G1; four scales of G4, G3, G2 and G1; four scales of G4, G3, G2 and G1; four scales of G4, G3, G2 and G1
- Particulars: intensity of hemorrhagic necrosis at 24 hours following i.v. administration, and pathological study
Measurement kind: Hemorrhagic necrosis effect

>>> result("CCCCCCCCCCCCOC(C)C1=C(C)C2=Cc3c(C(C)OCCCCCCCCCCCC)c(C)c4[n]3[Mn][n]3c(c(C)c(CCC(=O)NC(CC(=O)O)C(=O)O)c3=CC3=NC(=C4)C(C)=C3CCC(=O)NC(CC(=O)O)C(=O)O)=CC1=N2 (centres unmarked)")
"G4"
>>> result("CCOC(C)C1=C(C)C2=Cc3c(C(C)OCC)c(C)c4[n]3[Ga][n]3c(c(C)c(CCC(=O)NC(CC(=O)O)C(=O)O)c3=CC3=NC(=C4)C(C)=C3CCC(=O)NC(CC(=O)O)C(=O)O)=CC1=N2 (centres unmarked)")
"G1"

###

For each entry below, report its tumor/tissue cancer/ serum value.
- Tested on: nitrosoamine-induced pancreatic cancer
- Test: laser irradiation to the extirpated organ (excited fluorescent spectrum, N2-PLS measurement), tumor to tissue ratio
- Type: in vivo, Golden hamsters
- Particulars: i.v. 25 mg/kg bodyweight, organs extirpated at 24 hours after administration

>>> result("CC1=C(CCC(=O)NC(CC(=O)O)C(=O)O)C2=NC1=Cc1c(C)c(C(C)OC(C)C)c3[n]1[Ga][n]1c(c(C)c(CCC(=O)NC(CC(=O)O)C(=O)O)c1=C2)=CC1=NC(=C3)C(C)=C1C(C)OC(C)C (centres unmarked)")
1.54
>>> result("CCCCCCCCOC(C)C1=C(C)C2=Cc3c(C(C)OCCCCCCCC)c(C)c4[n]3[Ga][n]3c(c(C)c(CCC(=O)NC(CC(=O)O)C(=O)O)c3=CC3=NC(=C4)C(C)=C3CCC(=O)NC(CC(=O)O)C(=O)O)=CC1=N2 (centres unmarked)")
0.29
>>> result("CC1=C(CCC(=O)NC(CC(=O)O)C(=O)O)C2=NC1=Cc1c(C)c(C(C)OCCc3ccccc3)c3[n]1[Ga][n]1c(c(C)c(CCC(=O)NC(CC(=O)O)C(=O)O)c1=C2)=CC1=NC(=C3)C(C)=C1C(C)OCCc1ccccc1 (centres unmarked)")
0.72
>>> result("CCCCCCCCCCOC(C)C1=C(C)c2cc3[nH]c(cc4nc(cc5[nH]c(cc1n2)c(C)c5C(C)OCCCCCCCCCC)C(C)=C4CCC(=O)NC(CC(=O)O)C(=O)O)c(CCC(=O)NC(CC(=O)O)C(=O)O)c3C.[Ga] (centres unmarked)")
2.78
>>> result("CCCCCCCCCCCCOC(C)C1=C(C)c2cc3[nH]c(cc4nc(cc5[nH]c(cc1n2)c(C)c5C(C)OCCCCCCCCCCCC)C(C)=C4CCC(=O)NC(CC(=O)O)C(=O)O)c(CCC(=O)NC(CC(=O)O)C(=O)O)c3C.[Ga] (centres unmarked)")
1.35

Parameter requested: tumor/tissue cancer/ serum. Apply to each item below.
1. CC(C)=CCC/C(C)=C/COC(C)C1=C(C)C2=Cc3c(C(C)OC/C=C(\C)CCC=C(C)C)c(C)c4[n]3[Ga][n]3c(c(C)c(CCC(=O)NC(CC(=O)O)C(=O)O)c3=CC3=NC(=C4)C(C)=C3CCC(=O)NC(CC(=O)O)C(=O)O)=CC1=N2 (centres unmarked)
2. COC(C)C1=C(C)C2=Cc3c(C(C)OC)c(C)c4[n]3[Ga][n]3c(c(C)c(CCC(=O)NC(CC(=O)O)C(=O)O)c3=CC3=NC(=C4)C(C)=C3CCC(=O)NC(CC(=O)O)C(=O)O)=CC1=N2 (centres unmarked)

a:
1. 2.19
2. 2.50

Give measured tumor/tissue cancer/ serum for every item shown.
1. CCOC(C)C1=C(C)C2=Cc3c(C(C)OCC)c(C)c4[n]3[Ga][n]3c(c(C)c(CCC(=O)NC(CC(=O)O)C(=O)O)c3=CC3=NC(=C4)C(C)=C3CCC(=O)NC(CC(=O)O)C(=O)O)=CC1=N2 (centres unmarked)
2. CCCCOC(C)C1=C(C)C2=Cc3c(C(C)OCCCC)c(C)c4[n]3[Ga][n]3c(c(C)c(CCC(=O)NC(CC(=O)O)C(=O)O)c3=CC3=NC(=C4)C(C)=C3CCC(=O)NC(CC(=O)O)C(=O)O)=CC1=N2 (centres unmarked)
3. CCCCCCCOC(C)C1=C(C)C2=Cc3c(C(C)OCCCCCCC)c(C)c4[n]3[Ga][n]3c(c(C)c(CCC(=O)NC(CC(=O)O)C(=O)O)c3=CC3=NC(=C4)C(C)=C3CCC(=O)NC(CC(=O)O)C(=O)O)=CC1=N2 (centres unmarked)
4. CCCCCCCCCOC(C)C1=C(C)c2cc3[nH]c(cc4nc(cc5[nH]c(cc1n2)c(C)c5C(C)OCCCCCCCCC)C(C)=C4CCC(=O)NC(CC(=O)O)C(=O)O)c(CCC(=O)NC(CC(=O)O)C(=O)O)c3C.[Ga] (centres unmarked)
5. CCCCCCOC(C)C1=C(C)C2=Cc3c(C(C)OCCCCCC)c(C)c4[n]3[Ga][n]3c(c(C)c(CCC(=O)NC(CC(=O)O)C(=O)O)c3=CC3=NC(=C4)C(C)=C3CCC(=O)NC(CC(=O)O)C(=O)O)=CC1=N2 (centres unmarked)

a:
[1.16, 2.00, 0.89, 1.12, 0.98]

Please state tumor/tissue cancer/ serum for every molecule in the list that follows.
1. CC(C)=CCCC(C)CCOC(C)C1=C(C)C2=Cc3c(C(C)OCCC(C)CCC=C(C)C)c(C)c4[n]3[Ga][n]3c(c(C)c(CCC(=O)NC(CC(=O)O)C(=O)O)c3=CC3=NC(=C4)C(C)=C3CCC(=O)NC(CC(=O)O)C(=O)O)=CC1=N2 (centres unmarked)
2. CCCOC(C)C1=C(C)C2=Cc3c(C(C)OCCC)c(C)c4[n]3[Ga][n]3c(c(C)c(CCC(=O)NC(CC(=O)O)C(=O)O)c3=CC3=NC(=C4)C(C)=C3CCC(=O)NC(CC(=O)O)C(=O)O)=CC1=N2 (centres unmarked)

a:
1. 2.82
2. 5.91
